# credit: PubChem BioAssay (NCI)

Would you kindly list TGI for each of these compounds?
tested on: DLD-1 colon; test: NCI tumour cell line growth inhibition, 48 h

Asked: Entry Cc1ccc(NC(=O)CCc2n[nH]c(=S)o2)cc1 : reported TGI = ?
Given back: > 100 µM

Asked: Entry OCCN(CCO)c1cccc(N(CCO)CCO)n1 : reported TGI = ?
Given back: > 100 µM

Asked: Entry C=C=CC(NC(=O)c1ccccc1)(C(=O)O)C(F)(F)F (stereo unspecified) : reported TGI = ?
Given back: > 100 µM

Asked: Entry Cn1cc(C(=O)c2ccccc2)cc(C(=O)c2ccccc2)c1=O : reported TGI = ?
Given back: > 100 µM

Asked: Entry NC(=O)NC1C(C(=O)O)N(Cc2ccccc2)C(=O)N1Cc1ccccc1 (stereo unspecified) : reported TGI = ?
Given back: > 100 µM

Asked: Entry C[C@H](CCC1SC1(C)C)C1CCC2(C)C3=C(CC[C@]12C)[C@@]1(C)CC[C@H](O)C(C)(C)C1CC3 (stereo partly specified) : reported TGI = ?
Given back: > 100 µM

----------
Would you kindly list TGI for each of these compounds?
tested on: PC-3 prostate; assay: NCI tumour cell line growth inhibition, 48 h
Only the number, expressed in µM, is required.

Asked: Give TGI (PC-3 prostate) of the following compound: O=C(CC1C=Cc2ccccc2N1C(=O)c1ccccc1)c1ccccc1 (stereo not given)
Given back: 96.6

Asked: Give TGI (PC-3 prostate) of the following compound: Cc1cc2nc3c(C#N)c4c(c(-c5ccc(Cl)cc5)n3c2cc1C)CCC4
Given back: 97.7

Asked: Give TGI (PC-3 prostate) of the following compound: Cc1cc(O)c(C2=NN(c3ccc(S(N)(=O)=O)cc3)C(/C=C/c3ccccc3)C2)cc1Cl (stereo not given)
Given back: 11.5

Asked: Give TGI (PC-3 prostate) of the following compound: CC(C)=CC[C@]12CCN(C)[C@H]1N(S(=O)(=O)c1ccccc1)c1ccccc12
Given back: 98.6

Asked: Give TGI (PC-3 prostate) of the following compound: O=C1/C(=C/c2ccc(O)cc2)COc2ccc(O)c(O)c21
Given back: 13

Asked: Give TGI (PC-3 prostate) of the following compound: COc1cnc2c(c1)C(=O)c1c-2n(CCCN2CCC(O)CC2)c(=O)c2cc(Cl)ccc12
Given back: 3.56

----------
test system: T-47D breast; assay: NCI tumour cell line growth inhibition, 48 h; in the data active means GI50 below about 0.43 µM; inactive means the rest
Your answer must be one of the following: yes (1) for active, no (0) for inactive

Asked: I would be grateful if you could indicate the recorded call for CCCCOC1OC(COC(=O)C(C)C)C(OC(=O)C(C)C)C(O)C1OC1OC(C)C(OC(=O)CCC)C(OC(=O)C(C)C)C1O (stereo not given) .
Given back: no (0)

Asked: I would be grateful if you could indicate the recorded call for COC(=O)C(C(=O)OC)C(Br)C(Br)C(Br)c1ccccc1 (stereo not given) .
Given back: no (0)

Asked: I would be grateful if you could indicate the recorded call for COc1cc(Cl)cc(-c2nn(-c3cccc(NC(=O)Nc4ccc(Cl)c(Cl)c4)c3)cc2-c2ccncc2)c1 .
Given back: no (0)

Asked: I would be grateful if you could indicate the recorded call for O=[N+]([O-])c1cc([N+](=O)[O-])c(Cl)cc1Cl .
Given back: no (0)

Asked: I would be grateful if you could indicate the recorded call for NC(CSSCC(N)C(=O)O)C(=O)O (stereo not given) .
Given back: no (0)

Asked: I would be grateful if you could indicate the recorded call for CN(CCC(=O)/C(=C\c1ccccc1)c1ccc(Cl)cc1)Cc1ccccc1 .
Given back: no (0)

Asked: I would be grateful if you could indicate the recorded call for CC(=O)O[C@H]1CC[C@@]2(C)C(=C/C(=N/OCCN3CCCC3)[C@H]3[C@@H]4CC[C@H](OC(C)=O)[C@@]4(C)CC[C@@H]32)C1 .
Given back: no (0)

Asked: I would be grateful if you could indicate the recorded call for Cc1[nH]c2cc(F)ccc2c1-c1nc2c3cccnc3c3ncccc3c2[nH]1 .
Given back: yes (1)

Asked: I would be grateful if you could indicate the recorded call for O=C1N(Cc2ccccc2Cl)c2ccccc2C12NN=C(c1cccc(Cl)c1)S2 (stereo not given) .
Given back: no (0)

Asked: I would be grateful if you could indicate the recorded call for CC1SC2(CCCCC2)N(NC(=O)c2[nH]c3ccc(Br)cc3c2-c2ccccc2)C1=O (stereo not given) .
Given back: no (0)

Asked: I would be grateful if you could indicate the recorded call for O=C1c2cccnc2C(=O)c2c1c(C(=O)OCCCN1CCCCC1)c1ccccn21 .
Given back: no (0)

Asked: I would be grateful if you could indicate the recorded call for CCCCCCNCc1cc(C(C)(C)C)cc(CNCCCCCC)c1O .
Given back: no (0)

Asked: I would be grateful if you could indicate the recorded call for CCCCNc1ccc(Nc2ccccc2)cc1 .
Given back: no (0)

Asked: I would be grateful if you could indicate the recorded call for Cc1nc2ccccc2nc1N=Nc1ccccc1 .
Given back: no (0)

Asked: I would be grateful if you could indicate the recorded call for O=C1CC/C(=C/COc2cc(=O)oc3ccccc23)O1 .
Given back: no (0)
